inhibition: recorded values
- target-of-assay: NAD-dependent protein deacetylase sirtuin-2 (Homo sapiens) (UniProt Q8IXJ6)
- Sequence (whole entry): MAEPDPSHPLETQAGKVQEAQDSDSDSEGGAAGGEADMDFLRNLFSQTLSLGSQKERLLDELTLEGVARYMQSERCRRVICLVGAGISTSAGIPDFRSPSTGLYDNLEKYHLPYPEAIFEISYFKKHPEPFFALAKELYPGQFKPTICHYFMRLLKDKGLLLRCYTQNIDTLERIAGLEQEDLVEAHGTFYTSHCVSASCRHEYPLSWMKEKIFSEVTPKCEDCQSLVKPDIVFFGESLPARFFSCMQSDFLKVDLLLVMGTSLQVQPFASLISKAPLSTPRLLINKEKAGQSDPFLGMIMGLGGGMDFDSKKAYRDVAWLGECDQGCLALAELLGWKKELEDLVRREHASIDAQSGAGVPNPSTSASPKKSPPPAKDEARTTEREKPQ
- method-summary: Inhibition of human recombinant N-terminally 6X-His-tagged SIRT2 at 50 uM after 4 hrs in presence of NAD+ by fluorescent deacetylase assay
Respond with the bare value in %.

| compound-structure | target-of-assay | inhibition, % |
| --- | --- | --- |
| O=C1Nc2c(ccc(Cl)c2Cl)/C1=C/c1ccc(O)cc1 | NAD-dependent protein deacetylase sirtuin-2 (Homo sapiens) (UniProt Q8IXJ6) | 34.7 |
| O=C1Nc2c(ccc(Cl)c2Cl)/C1=C\c1ccncc1 | NAD-dependent protein deacetylase sirtuin-2 (Homo sapiens) (UniProt Q8IXJ6) | 16.5 |
| O=C1Nc2c(ccc(Cl)c2Cl)/C1=C\c1ccccn1 | NAD-dependent protein deacetylase sirtuin-2 (Homo sapiens) (UniProt Q8IXJ6) | 20.6 |

# evaluate next
[in] Item O=C1Nc2c(ccc(Cl)c2Cl)/C1=C/c1ccc(C(F)(F)F)cc1 has what recorded inhibition?
[out] 18.3
